The measurements presented in this section are drawn from patent US12098116B2.

Experiment: Solvent solubility study of ralinepag
Assay type: physicochemical
Conditions: organic solvent or mixture, thermodynamic from solid; solvent methanol; heated to 40° C.; read-out: Estimated Solubility
Protocol: To prepare amorphous material for solubility testing, 330 mg of ralinepag was dissolved in 33 mL tert-butanol (with gentle heating applied via a heatgun) before being split evenly into 33 vials (˜10 mg of ralinepag per sample). […] One vial of solid was analyzed by XRPD to confirm that ralinepag had been rendered amorphous. However, as in Example 2g, a poorly crystalline Pattern 2 was observed. […] Recovered solids were analyzed by XRPD.
Quantity Kind: solubility (mg/mL)

# Structure String, Units Label, Numeric Readout
records = [
    ("O=C(O)COC[C@H]1CC[C@H](COC(=O)N(c2ccccc2)c2ccc(Cl)cc2)CC1", "mg/mL", 200),
]

====

Assay: Solvent solubility study of ralinepag
Type: physicochemical
Conditions: organic solvent or mixture, thermodynamic from solid; in 29 of the 32 solvent systems; poorly crystalline ralinepag; read-out: Solubility, summary of the screen

# Structure String, solubility
rows = [
    ("O=C(O)COC[C@H]1CC[C@H](COC(=O)N(c2ccccc2)c2ccc(Cl)cc2)CC1", "≥ 10000 µg/mL"),
]

====

Test: Solvent solubility study of ralinepag
Assay type: physicochemical
Settings: organic solvent or mixture, thermodynamic from solid; solvent 2-methyltetrahydrofuran; read-out: Estimated Solubility
Quantity Kind: solubility

# Compound, Result
data = [
    ("O=C(O)COC[C@H]1CC[C@H](COC(=O)N(c2ccccc2)c2ccc(Cl)cc2)CC1 [ralinepag]", "200 mg/mL"),
]

====

Assay: Solvent solubility study of ralinepag
Type: physicochemical
Settings: organic solvent or mixture, thermodynamic from solid; solvent benzyl alcohol; read-out: Estimated Solubility
Quantity Kind: solubility

# Structure String, Result
rows = [
    ("O=C(O)COC[C@H]1CC[C@H](COC(=O)N(c2ccccc2)c2ccc(Cl)cc2)CC1", "200 mg/mL"),
]

====

Test: Solvent solubility study of ralinepag
Assay type: physicochemical
Conditions: organic solvent or mixture, thermodynamic from solid; solvent ethanol/water (98.5:1.5% v/v); read-out: Estimated Solubility

# Compound, Units Label, solubility
data = [
    ("O=C(O)COC[C@H]1CC[C@H](COC(=O)N(c2ccccc2)c2ccc(Cl)cc2)CC1 [ralinepag]", "mg/mL", 100),
]

====

Test: Solvent solubility study of ralinepag
Format: physicochemical
Conditions: organic solvent or mixture, thermodynamic from solid; solvent 1-butanol; heated to 40° C.; read-out: Estimated Solubility

# Structure String, solubility [mg/mL]
rows = [
    ("O=C(O)COC[C@H]1CC[C@H](COC(=O)N(c2ccccc2)c2ccc(Cl)cc2)CC1", 50),
]

====

Assay: Solvent solubility study of ralinepag
Format: physicochemical
Details: organic solvent or mixture, thermodynamic from solid; solvent ethanol/water (93:7% v/v); heated to 40° C.; read-out: Estimated Solubility

# Structure String, solubility / mg/mL
measured = [
    ("O=C(O)COC[C@H]1CC[C@H](COC(=O)N(c2ccccc2)c2ccc(Cl)cc2)CC1", 100),
]

====

Experiment: Solvent solubility study of ralinepag
Assay type: physicochemical
Conditions: organic solvent or mixture, thermodynamic from solid; solvent dimethylsulfoxide; heated to 40° C.; read-out: Estimated Solubility
Quantity Kind: solubility

# Molecule, Result
records = [
    ("O=C(O)COC[C@H]1CC[C@H](COC(=O)N(c2ccccc2)c2ccc(Cl)cc2)CC1 [ralinepag]", "200 mg/mL"),
]
